test.target: CYP17 (Homo sapiens, UniProt P05093)
Sequence (P05093 whole entry): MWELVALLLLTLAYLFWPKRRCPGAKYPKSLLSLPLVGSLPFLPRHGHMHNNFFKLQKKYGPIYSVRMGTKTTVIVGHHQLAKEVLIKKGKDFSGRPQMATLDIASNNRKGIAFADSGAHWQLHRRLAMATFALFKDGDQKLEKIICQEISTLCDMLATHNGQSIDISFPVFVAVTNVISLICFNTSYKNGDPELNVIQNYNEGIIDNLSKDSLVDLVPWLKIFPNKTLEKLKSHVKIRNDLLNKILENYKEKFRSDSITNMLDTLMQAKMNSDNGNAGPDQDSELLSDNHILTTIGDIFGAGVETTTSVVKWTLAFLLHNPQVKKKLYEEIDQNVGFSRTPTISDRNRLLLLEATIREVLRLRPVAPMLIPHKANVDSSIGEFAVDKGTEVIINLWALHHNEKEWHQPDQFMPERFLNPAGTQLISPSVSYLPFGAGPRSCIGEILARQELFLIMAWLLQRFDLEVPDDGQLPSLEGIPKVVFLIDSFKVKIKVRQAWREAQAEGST
procedure.text: Inhibition of human CYP17 expressed in Escherichia coli using progesterone substrate at 2 uM
recorded.conditions: recombinant human CYP17 expressed in Escherichia coli, probe progesterone
metric.name: inhibition at 2 µM (%)
Numbers only, in %.

Take a look at these entries with their results.
O=C1CCc2cc(-c3cccnc3)cc3c2N1CCC3 6
S=C1CCc2cc(-c3cccnc3)cc3c2N1CC3 11

Looking up O=C1CCc2cc(-c3cncnc3)cc3c2N1CC3 , I found its inhibition at 2 µM recorded as 5

###

test.target: CYP2B6 (Homo sapiens, UniProt P20813)
Sequence (P20813 whole entry): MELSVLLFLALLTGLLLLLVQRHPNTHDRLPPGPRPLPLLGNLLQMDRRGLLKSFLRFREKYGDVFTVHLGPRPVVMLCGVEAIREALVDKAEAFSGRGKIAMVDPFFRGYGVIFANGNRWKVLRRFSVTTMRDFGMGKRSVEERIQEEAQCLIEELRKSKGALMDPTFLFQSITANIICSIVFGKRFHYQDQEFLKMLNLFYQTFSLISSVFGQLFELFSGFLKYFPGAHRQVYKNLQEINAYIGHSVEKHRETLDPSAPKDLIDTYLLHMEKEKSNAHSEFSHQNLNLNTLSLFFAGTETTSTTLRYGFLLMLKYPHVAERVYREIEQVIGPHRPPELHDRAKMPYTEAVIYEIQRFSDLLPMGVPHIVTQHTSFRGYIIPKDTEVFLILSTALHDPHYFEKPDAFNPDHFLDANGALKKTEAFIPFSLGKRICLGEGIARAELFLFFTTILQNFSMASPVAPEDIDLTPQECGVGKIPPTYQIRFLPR
procedure.text: Inhibition of human CYP2B6 expressed in baculovirus-infected insect microsomes at 10 uM
Assay type: ADME, Microsome
metric.name: inhibition at 10 µM (%)
Give bare numbers, in %.

Take a look at these entries with their results.
O=C1CCc2cc(-c3cncc(-c4cccc(F)c4)c3)cc3c2N1CC3 13
O=C1CCc2cc(-c3cccnc3)cc3c2N1CCC3 36

# evaluate next
Looking up COc1cncc(-c2cc3c4c(c2)CCN4C(=O)CC3)c1 , I found its inhibition at 10 µM recorded as 8

###

test.target: Cytochrome P450 11B2, mitochondrial (Homo sapiens, UniProt P19099)
Sequence (P19099 whole entry): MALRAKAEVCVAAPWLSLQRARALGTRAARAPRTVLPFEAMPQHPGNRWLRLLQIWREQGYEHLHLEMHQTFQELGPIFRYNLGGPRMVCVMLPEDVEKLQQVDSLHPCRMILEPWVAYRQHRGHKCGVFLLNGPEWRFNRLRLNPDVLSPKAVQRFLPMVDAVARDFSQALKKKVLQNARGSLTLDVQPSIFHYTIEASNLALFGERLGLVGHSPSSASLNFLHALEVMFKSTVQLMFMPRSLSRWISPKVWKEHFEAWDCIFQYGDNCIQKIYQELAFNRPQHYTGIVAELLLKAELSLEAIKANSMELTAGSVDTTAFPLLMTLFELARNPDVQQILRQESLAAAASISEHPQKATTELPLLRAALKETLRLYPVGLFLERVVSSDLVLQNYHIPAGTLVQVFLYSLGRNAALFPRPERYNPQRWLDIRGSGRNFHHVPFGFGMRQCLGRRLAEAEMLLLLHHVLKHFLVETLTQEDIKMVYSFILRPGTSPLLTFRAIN
procedure.text: Inhibition of human CYP11B2 expressed in hamster V79 MZh cells assessed as conversion of [4-14C]-11-deoxycorticosterone substrate at 500 nM by HPTLC assay
Type: cell-based
recorded.conditions: V79MZh
For each entry below, report its inhibition at 0.5 µM value.
Answers are plain numbers, in %.

Take a look at these entries with their results.
O=C1CCc2cc(-c3cncc(-c4ccccc4)c3)cc3c2N1CC3 97
O=C1CCc2cc(-c3cncnc3)cc3c2N1CC3 81
COc1cncc(-c2cc3c4c(c2)CCC(=O)N4CCC3)c1 95
CC1(C)CC(=O)N2CCc3cc(-c4cccnc4)cc1c32 48
COc1cccc(-c2cncc(-c3cc4c5c(c3)CCN5C(=O)CC4)c2)c1 86

Provide inhibition at 0.5 µM values for the following items, in order.
1. O=C1CCc2cc(-c3ccncc3)cc3c2N1CC3
2. O=C1CCc2cc(-c3cncc(-c4cccc(OC(F)(F)F)c4)c3)cc3c2N1CC3

[reply]
7
92
